B1: tRNA (parent)
chain: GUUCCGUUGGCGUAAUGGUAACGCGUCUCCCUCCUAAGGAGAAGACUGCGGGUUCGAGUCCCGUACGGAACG

# Variants of: B1
# Experimental details: yeast fitness relative to wild type (ratio to wild type); higher = fitter; tRNA-Arg(CCU), competitive growth, 37 C, YPD
Fewer inactive variants are shown than the library holds.
Property name: yeast fitness

[[record]]
mutation_name = "C11U C29A U59G"
property_name = "yeast fitness"
result = "≤ 0.5"

[[record]]
mutation_name = "G10A A20U U35C G48C C60A A69C"
property_name = "yeast fitness"
result = "≤ 0.5"

[[record]]
mutation_name = "U2A U47A A65C"
property_name = "yeast fitness"
result = "≤ 0.5"

[[record]]
mutation_name = "G9C C11U A36C"
property_name = "yeast fitness"
result = "≤ 0.5"


Give yeast fitness for the following variant: U3A C24A U28C C61A
≤ 0.5

Give yeast fitness for the following variant: A15G C33U A45U C62A
≤ 0.5
